These measurements were taken from paper PMC10733197.

# ASSAY: clinical
# TEST_CONDITIONS: human, in vivo, 10 mg

- COMPOUND: "CC(C)c1nc(N(C)S(C)(=O)=O)nc(-c2ccc(F)cc2)c1/C=C/[C@@H](O)C[C@@H](O)CC(=O)O"
  half-life, h: 19.2

---

# ASSAY: clinical
# TEST_CONDITIONS: human, in vivo, 10 mg

- COMPOUND: "CC(C)c1nc(N(C)S(C)(=O)=O)nc(-c2ccc(F)cc2)c1/C=C/[C@@H](O)C[C@@H](O)CC(=O)O [Rosuvastatin, rosuvastatin]"
  Cmax: "4.5 ng/mL"

---

# TEST_SYSTEM: OATP1B1 (Homo sapiens, UniProt Q9Y6L6)
# Construct: expressed in transfected cells; host or cells: HEK293
# Sequence (Q9Y6L6 whole entry): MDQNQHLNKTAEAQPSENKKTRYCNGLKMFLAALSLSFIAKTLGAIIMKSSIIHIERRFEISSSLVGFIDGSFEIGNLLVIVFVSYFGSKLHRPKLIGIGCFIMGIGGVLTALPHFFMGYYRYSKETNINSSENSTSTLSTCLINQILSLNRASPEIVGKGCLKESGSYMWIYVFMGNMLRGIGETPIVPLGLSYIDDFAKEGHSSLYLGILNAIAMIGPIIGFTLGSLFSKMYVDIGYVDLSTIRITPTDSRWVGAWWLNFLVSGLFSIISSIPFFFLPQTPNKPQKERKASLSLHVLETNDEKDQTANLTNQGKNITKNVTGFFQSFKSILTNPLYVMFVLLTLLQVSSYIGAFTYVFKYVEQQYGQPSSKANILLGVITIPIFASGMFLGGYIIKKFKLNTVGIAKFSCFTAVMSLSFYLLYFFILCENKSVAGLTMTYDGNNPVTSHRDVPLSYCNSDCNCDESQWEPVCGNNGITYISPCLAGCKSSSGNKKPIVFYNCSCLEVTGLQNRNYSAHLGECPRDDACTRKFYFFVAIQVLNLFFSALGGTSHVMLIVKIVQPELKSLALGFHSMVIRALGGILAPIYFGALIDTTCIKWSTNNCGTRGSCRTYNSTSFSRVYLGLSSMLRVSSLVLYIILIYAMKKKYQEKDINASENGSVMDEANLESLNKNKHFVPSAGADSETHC
# ASSAY: OATP1B1-mediated CP-I uptake inhibition in transfected HEK293 cells
# Format: cell-based
# TEST_CONDITIONS: hepatic OATP1B1; CP-I 0.1 µM as substrate, 10 min; HEK293; mean ± SD, n = 3
# Description: Sources of human embryonic kidney (HEK) 293 cells expressing individual transfected human solute carriers (SLC), test substrates, and cell culture reagents, as well as detailed cell culture methods, incubations, and sample processing, have been described previously. SLC included hepatic OATP1B1, OATP1B3, and renal OAT1 and OAT3. […] Uptake of CP-I was determined by analysis of the in vitro assay samples using an optimized LC-high resolution mass spectrometry (HRMS) method. […]
pIC50: −log10 of the molar value.

- COMPOUND: "C=CC(=O)N1C[C@H](Nc2ncnc3[nH]ccc23)CC[C@@H]1C"
  TEST_SYSTEM: "OATP1B1 (Homo sapiens, UniProt Q9Y6L6)"
  pIC50: 3.59

---

# ASSAY: clinical
# TEST_CONDITIONS: human, in vivo, 10 mg

- COMPOUND: "CC(C)c1nc(N(C)S(C)(=O)=O)nc(-c2ccc(F)cc2)c1/C=C/[C@@H](O)C[C@@H](O)CC(=O)O"
  Vd/F: "6020 L"

---

# TEST_SYSTEM: OATP1B3 (Homo sapiens, UniProt Q9NPD5)
# Construct: expressed in transfected cells; host or cells: HEK293
# Sequence (Q9NPD5 whole entry): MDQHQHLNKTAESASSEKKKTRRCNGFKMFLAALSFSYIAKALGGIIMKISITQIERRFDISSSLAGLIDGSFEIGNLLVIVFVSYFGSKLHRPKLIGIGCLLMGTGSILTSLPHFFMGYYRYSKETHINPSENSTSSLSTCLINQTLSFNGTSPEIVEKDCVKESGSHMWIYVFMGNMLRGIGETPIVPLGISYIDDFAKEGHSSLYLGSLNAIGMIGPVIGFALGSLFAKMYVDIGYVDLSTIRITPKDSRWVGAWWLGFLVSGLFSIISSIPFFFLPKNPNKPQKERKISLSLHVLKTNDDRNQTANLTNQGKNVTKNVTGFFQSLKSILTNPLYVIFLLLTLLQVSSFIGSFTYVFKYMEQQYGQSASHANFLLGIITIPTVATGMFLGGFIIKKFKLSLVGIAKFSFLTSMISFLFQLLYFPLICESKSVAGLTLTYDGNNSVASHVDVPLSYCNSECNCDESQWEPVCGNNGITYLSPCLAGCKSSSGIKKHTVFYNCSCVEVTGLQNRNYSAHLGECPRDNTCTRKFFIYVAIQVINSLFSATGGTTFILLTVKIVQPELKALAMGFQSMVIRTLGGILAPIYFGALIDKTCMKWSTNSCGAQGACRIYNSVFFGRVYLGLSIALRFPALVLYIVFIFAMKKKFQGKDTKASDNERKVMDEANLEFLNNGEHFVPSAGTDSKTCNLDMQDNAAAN
# ASSAY: OATP1B3-mediated CP-I uptake inhibition in transfected HEK293 cells
# Type: cell-based
# TEST_CONDITIONS: human, HEK293 cells transfected with OATP1B3, probe coproporphyrin I (CP-I), 0.1 µM; OATP1B3 (CP-I); 1000 µM; read-out: % inhibition at the highest concentration tested

- COMPOUND: "C=CC(=O)N1C[C@H](Nc2ncnc3[nH]ccc23)CC[C@@H]1C [Ritlecitinib, ritlecitinib]"
  TEST_SYSTEM: "OATP1B3 (Homo sapiens, UniProt Q9NPD5)"
  inhibition at 10 min, 1000 µM (%): 23
